conditions: in acetonitrile, 308.15 K
Test readout: solubility (mole fraction)

INSERT INTO measurements (smiles_repr, test_readout, reading) VALUES
  ('CNC(=O)c1cc(Oc2ccc(N)cc2)ccn1', 'solubility (mole fraction)', 0.091);

----------
details: in acetone, 323.15 K
Test readout: solubility (mole fraction)

INSERT INTO assay_data (smiles_repr, reading) VALUES
  ('CNC(=O)c1cc(Oc2ccc(N)cc2)ccn1', 0.112);

----------
conditions: in methanol, 288.15 K
Test readout: solubility (mole fraction)

INSERT INTO assay_data (smiles_repr, test_readout, reading) VALUES
  ('CNC(=O)c1cc(Oc2ccc(N)cc2)ccn1', 'solubility (mole fraction)', 0.0162);

----------
details: in acetone, 293.15 K
Test readout: solubility (mole fraction)

INSERT INTO measurements (smiles_repr, test_readout, reading) VALUES
  ('CNC(=O)c1cc(Oc2ccc(N)cc2)ccn1', 'solubility (mole fraction)', 0.0558);

----------
conditions: in THF, 303.15 K
Test readout: solubility (mole fraction)

INSERT INTO assay_data (smiles_repr, reading) VALUES
  ('CNC(=O)c1cc(Oc2ccc(N)cc2)ccn1', 0.144);

----------
settings: in acetylacetone, 323.15 K
Test readout: solubility (mole fraction)

INSERT INTO measurements (smiles_repr, test_readout, reading) VALUES
  ('CNC(=O)c1cc(Oc2ccc(N)cc2)ccn1', 'solubility (mole fraction)', 0.0558);

----------
conditions: in THF, 283.15 K
Test readout: solubility (mole fraction)

INSERT INTO results (smiles_repr, reading) VALUES
  ('CNC(=O)c1cc(Oc2ccc(N)cc2)ccn1', 0.0992);

----------
settings: in water, 308.15 K
Test readout: solubility (mole fraction)

INSERT INTO assay_data (smiles_repr, reading) VALUES
  ('CNC(=O)c1cc(Oc2ccc(N)cc2)ccn1', 0.000715);

----------
details: in acetylacetone, 283.15 K
Test readout: solubility (mole fraction)

INSERT INTO assay_data (smiles_repr, test_readout, reading) VALUES
  ('CNC(=O)c1cc(Oc2ccc(N)cc2)ccn1', 'solubility (mole fraction)', 0.0214);

----------
conditions: in ethyl acetate, 298.15 K
Test readout: solubility (mole fraction)

INSERT INTO measurements (smiles_repr, test_readout, reading) VALUES
  ('CNC(=O)c1cc(Oc2ccc(N)cc2)ccn1', 'solubility (mole fraction)', 0.112);

----------
details: in methanol, 278.15 K
Test readout: solubility (mole fraction)

INSERT INTO results (smiles_repr, test_readout, reading) VALUES
  ('CNC(=O)c1cc(Oc2ccc(N)cc2)ccn1', 'solubility (mole fraction)', 0.00985);

----------
conditions: in n-butanol, 313.15 K
Test readout: solubility (mole fraction)

INSERT INTO results (smiles_repr, reading) VALUES
  ('CNC(=O)c1cc(Oc2ccc(N)cc2)ccn1', 0.0225);

----------
conditions: in n-butanol, 293.15 K
Test readout: solubility (mole fraction)

INSERT INTO measurements (smiles_repr, test_readout, reading) VALUES
  ('CNC(=O)c1cc(Oc2ccc(N)cc2)ccn1', 'solubility (mole fraction)', 0.00796);

----------
settings: in acetonitrile, 283.15 K
Test readout: solubility (mole fraction)

INSERT INTO results (smiles_repr, reading) VALUES
  ('CNC(=O)c1cc(Oc2ccc(N)cc2)ccn1', 0.033);
